Some compounds, each annotated with its measured IC50.
Target: GST-JAK2(808-1132) (Homo sapiens)
Construct: GST-JAK2(808-1132); purchased Invitrogen (Carlsbad, USA) #4288
Sequence (O60674 808-1132): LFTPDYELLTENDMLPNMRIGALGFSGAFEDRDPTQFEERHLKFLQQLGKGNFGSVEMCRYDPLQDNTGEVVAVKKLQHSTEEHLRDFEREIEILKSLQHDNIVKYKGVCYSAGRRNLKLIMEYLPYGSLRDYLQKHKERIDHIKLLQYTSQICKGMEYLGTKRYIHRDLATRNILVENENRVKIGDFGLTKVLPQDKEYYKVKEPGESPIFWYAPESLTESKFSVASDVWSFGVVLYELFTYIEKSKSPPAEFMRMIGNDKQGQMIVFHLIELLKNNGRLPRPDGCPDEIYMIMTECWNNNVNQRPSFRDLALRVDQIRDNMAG
Experiment: EPK JAK-family kinases profiling assay (Caliper mobility shift), JAK2
Type: biochemical
Settings: ATP 20 μM, 1.8 nM kinase
Supply the numeric figure in nM, leaving out any unit text.

Observe how each entry below is paired with its result.
- CN1CCN(c2cccc(-c3cnc4cccc(-c5cc(F)c(CN6CCS(=O)(=O)CC6)c(F)c5)c4n3)c2)CC1: 4
- COc1cc(-c2cnc3cccc(-c4ccc(CC(=O)N5CCOCC5)cc4)c3n2)ccc1OCCCN1CCOCC1: 6.25
- CNS(=O)(=O)c1ccc(-c2cccc3ncc(-c4ccc(OC)c(OC)c4)nc23)cc1: 73
- COc1cc(-c2cnc3cccc(-c4ccc(S(N)(=O)=O)cc4)c3n2)cc(OC)c1OC: 110
- Cc1cc(-c2cccc3ncc(-c4c(C)nn(C5CCNCC5)c4C)nc23)ccc1CN1CCOCC1: 650

Data request, read-out IC50, for "Cc1cc(-c2cnc3cccc(-c4cc(F)c(CN5CCS(=O)(=O)CC5)c(F)c4)c3n2)cnc1C(=O)N(C)CCN(C)C"
28.5

Moving on to the next compound: "CN1CCN(C(=O)c2cccc(-c3cnc4cccc(-c5ccc(CN6CCS(=O)(=O)CC6)cc5)c4n3)c2)CC1"
74

Query "CN1CCN(c2ccc(-c3cnc4cccc(-c5cc(F)c(CN6CCOCC6)c(F)c5)c4n3)cn2)CC1" next
95.5

Consider next the compound "CN1CCN(c2ccc(-c3cnc4cccc(-c5ccc(CN6CCS(=O)(=O)CC6)cc5)c4n3)cn2)CC1" in the same way.
24

And the next one, "Cc1cc(-c2cccc3ncc(-c4cnn(C5CCNCC5)c4)nc23)ccc1CN1CCOCC1" ?
9.2

Field entry: "Cc1nn(C2CCNCC2)c(C)c1-c1cnc2cccc(-c3ccc(CN4CCOCC4)cc3)c2n1"
950

And what about the compound "O=C1CN(Cc2c(F)cc(-c3cccc4ncc(-c5cnn(C6CCOCC6)c5)nc34)cc2F)CCN1" ?
25

Again, but for "COc1cc(-c2cnc3cccc(-c4ccc(CN5CCS(=O)(=O)CC5)c(F)c4)c3n2)ccc1OCCCN1CCOCC1"
3.25

Request: "CN1CCN(c2ccc(-c3cnc4cccc(-c5cc(F)c(CN6CCOCC6)c(F)c5)c4n3)cc2)CC1"
33.5

Record: "CN1CCN(C(=O)c2cccc(-c3cnc4cccc(-c5cc(F)c(CN6CCS(=O)(=O)CC6)c(F)c5)c4n3)c2)CC1"
11

Next: "COc1cc(-c2cnc3cccc(-c4ccc(S(=O)(=O)C(C)C)cc4)c3n2)cc(OC)c1OC"
220

Now consider "COc1cc(-c2cnc3cccc(-c4ccc(CC(=O)N5CCOCC5)cc4)c3n2)cc(OC)c1OC" .
9

Another compound to look at: "COc1cc(-c2cnc3cccc(-c4ccc(C(=O)N5CCOCC5)c(C)c4)c3n2)ccc1N1CCN(C)CC1"
32

Also, "Cc1cc(-c2cnc3cccc(-c4ccc(CC(=O)N5CCS(=O)(=O)CC5)c(F)c4)c3n2)ccc1Cn1ccnc1" please.
5.7

Also need "CN(C)CCN(C)C(=O)c1ccc(-c2cnc3cccc(-c4cc(F)c(CN5CCOCC5)c(F)c4)c3n2)cn1" , thanks.
575

Next entry: "CN1CCN(C(=O)c2cc(-c3cnc4cccc(-c5cc(F)c(CN6CCOCC6)c(F)c5)c4n3)cn2C)CC1"
8.1

Cool, now "Fc1cc(-c2cccc3ncc(-c4cnn(C5CCNCC5)c4)nc23)ccc1CN1CCOCC1"
10
